The measurements presented in this section are drawn from paper doi:10.1101/2022.02.09.479090v1.

# SUBJECT_OF_TEST: RLuc8 (Renilla reniformis, UniProt P27652, A143M/A55T/C124A/K136R/M185V/M253L/S130A/S287L)
# Sequence (P27652 whole entry A55T/C124A/S130A/K136R/A143M/M185V/M253L/S287L): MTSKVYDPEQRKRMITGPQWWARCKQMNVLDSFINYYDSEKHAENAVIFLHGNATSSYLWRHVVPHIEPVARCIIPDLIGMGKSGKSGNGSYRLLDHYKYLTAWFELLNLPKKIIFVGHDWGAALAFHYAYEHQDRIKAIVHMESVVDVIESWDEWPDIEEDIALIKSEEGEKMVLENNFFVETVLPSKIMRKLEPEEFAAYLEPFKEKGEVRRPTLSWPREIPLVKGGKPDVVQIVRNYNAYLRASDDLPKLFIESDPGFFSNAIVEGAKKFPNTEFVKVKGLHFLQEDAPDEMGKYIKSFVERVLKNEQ
# EXPERIMENT_SUMMARY: biochemical
pKd: −log10 of the molar value.
MEASURED_METRIC: pKd

                                   compound  meas_value
0  O=C(Cc1ccc(O)cc1)Nc1ncc(-c2ccc(O)cc2)nc1Cc1ccccc1 [CEI, coelenteramide]        4.66

====

# SUBJECT_OF_TEST: AncFT
# EXPERIMENT_SUMMARY: luminescence progress curves, global numerical fit
# CONDITION_NOTES: competitive versus coelenterazine; 100 mM phosphate pH 7.5, 37 °C
pKi: −log10 of the molar value.
MEASURED_METRIC: pKi

>>> df
                                   compound  meas_value
0  O=c1n(Cc2ccc(O)cc2)nc2c(Cc3ccccc3)nc(-c3ccc(O)cc3)cn12        7.04
